The measured values listed here are drawn from paper PMC6017737.

Task for the reader: assign each of the following proteins its reported stoichiometry N.
- TARGET_OR_TEST_SYSTEM: the molecule itself
- ASSAY_PROCEDURE: native MS; nanoflow ESI-MS of the native MBP-fused variants; source backing pressure 7.8 mbar, cone voltage 100-150 V
Answer with a number only.

IN: Can you look up the measured stoichiometry N of MBP-TtProDH ΔA (MBP-TtProDH lacking helix αA) (domain or fragment, Thermus thermophilus, Proline dehydrogenase (TtProDH), Thermus thermophilus, lacking helix αA; C-terminal tail of TtProDH (part of helix α8), residues 288-309 as printed; Cloned with EcoRI and HindIII into pBAD-MBP; not shown: MBP, N-terminal, kept) QVERLIKHRAKGLVRRYVAGETLEEALKAAEALEREGVHAILDLLGEMVRTEEEARAFQRGLLELVWALAGKPWPKYISLKLTQLGLDLSEDLALALLREVLREAEPRGVFVRLDMEDSPRVEATLRLYRALREEGFSQVGIVLQSYLYRTEKDLLDLLPYRPNLRLVKGAYREPKEVAFPDKRLIDAEYLHLGKLALKEGLYVAFATHDPRIIAELKRYTEAMGIPRSRFEFQFLYGVRPEEQRRLAREGYTVRAYVPYGRDWYPYLTRRIAERPENLLLVLRSLVSGLE for me?
OUT: 2

IN: Continue with MBP-TtProDH ΔABC (MBP-TtProDH lacking helices αA, αB and αC) (domain or fragment, Thermus thermophilus, UniProt Q72IB8 38-287, looked up, Proline dehydrogenase (TtProDH), Thermus thermophilus, lacking the whole N-terminal arm; PDB 5M42)'; the construct encodes up to residue 309, but the observed species is C-terminally truncated, cleaved before Arg288 (residues 288-309 removed); The difference of the predicted masses of ΔAB and ΔABC (75.5 against 74.4 kDa) fits a start at G38; not shown: MBP, N-terminal, kept) GETLEEALKAAEALEREGVHAILDLLGEMVRTEEEARAFQRGLLELVWALAGKPWPKYISLKLTQLGLDLSEDLALALLREVLREAEPRGVFVRLDMEDSPRVEATLRLYRALREEGFSQVGIVLQSYLYRTEKDLLDLLPYRPNLRLVKGAYREPKEVAFPDKRLIDAEYLHLGKLALKEGLYVAFATHDPRIIAELKRYTEAMGIPRSRFEFQFLYGVRPEEQRRLAREGYTVRAYVPYGRDWYPYLT
OUT: 4

IN: Note, next up: MBP-TtProDH ΔAB V32D (domain or fragment, Thermus thermophilus, Proline dehydrogenase (TtProDH), Thermus thermophilus, lacking helices αA and αB, with V32D in helix αC; C-terminal tail of TtProDH (part of helix α8), residues 288-309 as printed; lacking in a part of the preparation; The preparation is a mixture: partially intact and partially cleaved before R288 (two subunit masses, 73.0 and 75.5 kDa); Mainly dimers by SEC, tetramers and dimers by …) KGLDRRYVAGETLEEALKAAEALEREGVHAILDLLGEMVRTEEEARAFQRGLLELVWALAGKPWPKYISLKLTQLGLDLSEDLALALLREVLREAEPRGVFVRLDMEDSPRVEATLRLYRALREEGFSQVGIVLQSYLYRTEKDLLDLLPYRPNLRLVKGAYREPKEVAFPDKRLIDAEYLHLGKLALKEGLYVAFATHDPRIIAELKRYTEAMGIPRSRFEFQFLYGVRPEEQRRLAREGYTVRAYVPYGRDWYPYLTRRIAERPENLLLVLRSLVSGLE
OUT: 4

IN: Also MBP-TtProDH ΔAB V36D (domain or fragment, Thermus thermophilus, Proline dehydrogenase (TtProDH), Thermus thermophilus, lacking helices αA and αB, with V36D in helix αC; C-terminal tail of TtProDH (part of helix α8), residues 288-309 as printed; lacking in a part of the preparation; The preparation is a mixture: partially intact and partially cleaved before R288 (two subunit masses, 73.0 and 75.5 kDa); Mainly dimers by SEC, tetramers and dimers by …) KGLVRRYDAGETLEEALKAAEALEREGVHAILDLLGEMVRTEEEARAFQRGLLELVWALAGKPWPKYISLKLTQLGLDLSEDLALALLREVLREAEPRGVFVRLDMEDSPRVEATLRLYRALREEGFSQVGIVLQSYLYRTEKDLLDLLPYRPNLRLVKGAYREPKEVAFPDKRLIDAEYLHLGKLALKEGLYVAFATHDPRIIAELKRYTEAMGIPRSRFEFQFLYGVRPEEQRRLAREGYTVRAYVPYGRDWYPYLTRRIAERPENLLLVLRSLVSGLE , if possible.
OUT: 4
